# Test system: VZV
# experiment.summary: microbe, parasite or virus in culture
# Assay type: cell-based, varicella-zoster virus (VZV), Oka strain
# conditions: Human alphaherpesvirus 3, Fibroblast, read-out: Antiviral Activity (ED50) VZV
measured.quantity: EC50 (µg/mL)
The reply should contain only the number, in µg/mL.

# lookup: EC50 of Nc1ncnc2c1ncn2[C@@H]1S[C@H](CO)[C@@H](O)[C@@H]1F [Synthesis Example 1]
3.04

# lookup: EC50 of Nc1nc(O)c2ncn(COC(CO)CO)c2n1 [Control Example 3, ganciclovir, reference compound]
3.1

# lookup: EC50 of Nc1nc(N)c2ncn([C@@H]3S[C@H](CO)[C@@H](O)[C@@H]3F)c2n1 [Synthesis Example 2]
0.101

# lookup: EC50 of Nc1ncnc2c1ncn2[C@@H]1O[C@H](CO)[C@@H](O)[C@@H]1O [Control Example 1, araA, reference compound]
1.17

# lookup: EC50 of Nc1nc2c(ncn2[C@@H]2S[C@H](CO)[C@@H](O)[C@@H]2F)c(=O)[nH]1 [Synthesis Example 3]
0.095
